Tested on: Nucleic Acid
Assay: Conversion of type 1 supercoiled DNA to type 2 nicked DNA in presence of dithiothreitol
Type: nucleic-acid assay
Parameters: concentration or dose not given beside the values
Reported Activity values for the following compounds.
ENDPOINT_LABEL: Activity (%)

INSERT INTO assay_data (chemical_string, qualifier_operator, result) VALUES
  ('COc1ccc(OC)c2c1C(=[N+]=[N-])c1ccccc1-2', '=', 9),
  ('[N-]=[N+]=C1c2ccccc2-c2c1cccc2[N+](=O)[O-]', '<', 5),
  ('[N-]=[N+]=C1c2ccccc2-c2ccccc21', '<', 5),
  ('COc1cccc2c1C(=[N+]=[N-])c1ccccc1-2', '=', 41),
  ('[N-]=[N+]=C1c2ccccc2-c2cccc([N+](=O)[O-])c21', '<', 5),
  ('[N-]=[N+]=C1c2ccccc2-c2c(Cl)cccc21', '<', 5),
  ('CC(=O)O[C@@H]1c2c(c3c(=O)c4cccc(O)c4c(=O)c=3c2=[N+]=[N-])[C@H](O)[C@@H](OC(C)=O)[C@]1(C)O', '=', 28),
  ('COc1cccc2c1-c1ccccc1C2=[N+]=[N-]', '=', 13),
  ('[N-]=[N+]=C1c2ccccc2-c2c(N)cccc21', '=', 18),
  ('[N-]=[N+]=c1c2c(=O)ccc(=O)c=2c2ccccc12', '=', 10),
  ('[N-]=[N+]=C1c2ccccc2-c2cccc(Cl)c21', '<', 5);
